Hello, the source for this data is patent US10927126B2, in case you need it.

- Tested System: Human M4 (Homo sapiens, UniProt P08173)
- Sequence (P08173 whole entry): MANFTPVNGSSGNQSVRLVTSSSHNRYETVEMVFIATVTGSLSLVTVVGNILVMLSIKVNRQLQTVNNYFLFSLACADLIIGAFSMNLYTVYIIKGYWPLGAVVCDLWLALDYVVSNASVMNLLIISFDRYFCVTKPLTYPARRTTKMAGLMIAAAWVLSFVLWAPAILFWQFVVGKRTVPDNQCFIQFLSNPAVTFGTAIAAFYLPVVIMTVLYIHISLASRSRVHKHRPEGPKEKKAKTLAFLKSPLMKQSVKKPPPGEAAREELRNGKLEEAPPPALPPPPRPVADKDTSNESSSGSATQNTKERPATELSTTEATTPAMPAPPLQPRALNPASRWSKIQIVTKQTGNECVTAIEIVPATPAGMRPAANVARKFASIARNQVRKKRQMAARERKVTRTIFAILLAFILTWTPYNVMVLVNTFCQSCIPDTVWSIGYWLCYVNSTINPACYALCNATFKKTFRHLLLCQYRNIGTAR
- Test Details: mAChR M4 cell-based functional assay (calcium flux, potentiation of EC20 acetylcholine response)
Counter-ions that a name gives are not always drawn.
Reported Property: log10 EC50 (log10 of the value in nM)

1) Cc1cc(C)c2c(n1)sc1c(N(C)C)nccc12; 2.31
2) COc1nnc2sc3c(NC4CN(c5ncc(C(F)(F)F)cn5)C4)nccc3c2c1C; 2.45
3) Cc1nnc2sc3c(NCc4ccc(OCC5CC5)c(F)c4)nccc3c2c1C [Compound 18, hydrochloride]; 2.83
4) Cc1c(C(F)F)nnc2sc3c(N4CC(c5ccncc5)C4)nccc3c12; 2.65
5) Cc1c(Cl)nnc2sc3c(NC4CCC4)nccc3c12; 1.37
6) Cc1nnc2sc3c(NC4CN(c5ccc(C#N)cn5)C4)nccc3c2c1C; 1.23
7) Cc1nc2sc3c(NCc4ccc(C(C)(C)O)cc4)nccc3c2c(C)c1Cl; 3.19
8) Cc1nnc2sc3c(NC4CCC4)nccc3c2c1C [Compound 7, hydrochloride]; 1.78
9) Cc1nnc2sc3c(NC4CN(c5ccc(F)c(F)c5)C4)nccc3c2c1C [Compound 19, hydrochloride]; 2.21
10) COc1ccc(CNc2nccc3c2sc2nnc(C)c(C)c23)cc1F [Compound 14, hydrochloride]; 1.16
11) Cc1c(Cl)nnc2sc3c(NC4CN(c5ncc(C(F)(F)F)cn5)C4)nccc3c12 [Compound 33, trifluoroacetic acid salt]; 1.73
12) Cc1nnc2sc3c(NCc4ccc(C(C)(C)O)cc4F)nccc3c2c1C; 1.90
13) Cc1cc(C)c2c(n1)sc1c(NC3CCCC3)nccc12; 2.09
14) Cc1nnc2sc3c(NC4CN(c5ncc(C(F)(F)F)cn5)C4)nccc3c2c1C [Compound 10, hydrochloride]; 1.83
